FYI, the data here is from ChEMBL document CHEMBL1649570.

experiment: Half life in Plasmodium falciparum-infected patient at 40 mg/kg, po; type: ADME, organism-based; set-up: dose 40 mg/kg, route oral; conditions: human, in vivo
outcome measure: half-life (min)
One number for each entry, in min.

Exercise: Which value of half-life has been reported for C[C@H]1[C@@H](O)O[C@@H]2O[C@@]3(C)CC[C@H]4[C@H](C)CC[C@@H]1[C@@]24OO3 in the records?
Solution: 51

###

experiment: Cmax in Plasmodium falciparum-infected patient at 320 mg/kg, po; format: ADME, organism-based; parameters: dose 320 mg/kg, route oral; settings: human, in vivo
outcome measure: Cmax (ng/mL)
Numbers only, in ng/mL.

Exercise: Which value of Cmax has been reported for Clc1ccc2c(N3CCN(CCCN4CCN(c5ccnc6cc(Cl)ccc56)CC4)CC3)ccnc2c1 in the records?
Solution: 568
